# system-name: SIRT1 (Homo sapiens, UniProt Q96EB6)
# Sequence (Q96EB6 1-747): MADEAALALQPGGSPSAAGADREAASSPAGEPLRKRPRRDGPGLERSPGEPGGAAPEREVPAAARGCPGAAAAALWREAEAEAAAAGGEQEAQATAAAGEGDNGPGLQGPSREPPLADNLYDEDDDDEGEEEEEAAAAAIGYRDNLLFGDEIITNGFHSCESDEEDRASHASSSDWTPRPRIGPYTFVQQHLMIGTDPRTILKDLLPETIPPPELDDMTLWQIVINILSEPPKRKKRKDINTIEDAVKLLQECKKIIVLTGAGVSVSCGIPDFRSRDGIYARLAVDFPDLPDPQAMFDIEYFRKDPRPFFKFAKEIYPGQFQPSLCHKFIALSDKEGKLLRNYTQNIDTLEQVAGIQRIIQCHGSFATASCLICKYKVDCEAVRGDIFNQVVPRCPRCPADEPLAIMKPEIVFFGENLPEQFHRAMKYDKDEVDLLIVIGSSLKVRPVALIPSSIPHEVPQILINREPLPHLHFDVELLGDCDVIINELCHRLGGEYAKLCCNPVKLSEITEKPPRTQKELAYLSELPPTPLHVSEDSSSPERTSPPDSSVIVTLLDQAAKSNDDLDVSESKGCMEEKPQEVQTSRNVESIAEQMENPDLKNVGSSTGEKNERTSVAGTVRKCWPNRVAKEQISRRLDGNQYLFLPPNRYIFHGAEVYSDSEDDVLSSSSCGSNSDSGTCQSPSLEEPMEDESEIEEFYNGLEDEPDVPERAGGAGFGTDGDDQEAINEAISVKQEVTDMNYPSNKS
# procedure-details: Mass spectrometry based assay to identify modulators of SIRT1 activity (deacetylation of p53-based acetylated peptide)
# Type: biochemical
# test-context: SIRT1 activation; 10 nM SIRT1, 0.5 μM peptide substrate, 120 μM βNAD+, 25 minutes at 25° C.
readout-label: EC1.5 μM

Consider the reported EC1.5 μM for these molecules:
- O=C(Nc1cccc2c(=O)cc(-c3cccc(C(F)(F)F)c3)[nH]c12)c1cccnc1: A (EC1.5<1.0 μM)
- Cn1c(-c2cccnc2)nc2c(C(=O)Nc3ccccn3)cccc2c1=O: C (EC1.5>25 μM)
- CC(C)n1c(-c2cccc(C(F)(F)F)c2)nc2c(NC(=O)c3cnccn3)cccc2c1=O: A (EC1.5<1.0 μM)
- O=C(Nc1cccc2c(=O)cc(-c3cccc(C(F)(F)F)c3)[nH]c12)c1cncs1: A (EC1.5<1.0 μM)
- O=C(Nc1cnccn1)c1cccc2c(=O)cc(-c3cccc(C(F)F)c3)[nH]c12: A (EC1.5<1.0 μM)

Look up EC1.5 μM for this molecule: `Cn1cc(C(=O)Nc2cccc3c(=O)n(C)c(-c4cccc(C(F)(F)F)c4)nc23)cn1`
C (EC1.5>25 μM)

Look up EC1.5 μM for this molecule: `COc1ccc(NC(=O)c2cccc3c(=O)n(C)c(-c4cccc(C(F)(F)F)c4)nc23)cc1OC`
A (EC1.5<1.0 μM)
